Reported abundance fitness values are given for each entry in this list.
B1: Pituitary-specific positive transcription factor 1, residues 130 to 198; numbered along this chain, P28069 (parent)
chain: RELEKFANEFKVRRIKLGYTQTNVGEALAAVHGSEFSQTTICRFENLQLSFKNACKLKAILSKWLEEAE

# Variants of: B1
# assay.protocol: abundance fitness (aPCA) (normalised: wild type 0, dead -1); higher = more abundant; growth selection in yeast, the domain comes from the species named
# test.parameters: Homo sapiens
Respond using a number only.

RELEKFANEFKVRRIKLGYTQTNVGEALAAVHGSEFSQTTICQFENLQLSFKNACKLKAILSKWLEEAE = 0.11
RELEKFANEFKVRRIKLGYTQTNVGEALAAVHGSEFSQTTICRFENLCLSFKNACKLKAILSKWLEEAE = -0.586
RELTKFANEFKVRRIKLGYTQTNVGEALAAVHGSEFSQTTICRFENLQLSFKNACKLKAILSKWLEEAE = -0.249

// abundance fitness lookup, variant = RELEKFANEFKVRRIKLGYTQTNVGEALAAVHGSEFSQTTICRFENLQLSFYNACKLKAILSKWLEEAE , result: 0.057

// abundance fitness lookup, variant = RELEKFANEFKVRRIKLGYTQTNVGEAAAAVHGSEFSQTTICRFENLQLSFKNACKLKAILSKWLEEAE , result: -0.799

// abundance fitness lookup, variant = RELEKFANEFKVRRIKSGYTQTNVGEALAAVHGSEFSQTTICRFENLQLSFKNACKLKAILSKWLEEAE , result: -0.738

// abundance fitness lookup, variant = RELEKFANEFKVRRIKLGYTQTNVGEALAAVHGSEFSQTTICRFENLQLSFKNACKLKYILSKWLEEAE , result: -0.298

// abundance fitness lookup, variant = RELEKFANEFKVRRIKLGYTQTNMGEALAAVHGSEFSQTTICRFENLQLSFKNACKLKAILSKWLEEAE , result: -0.851

// abundance fitness lookup, variant = RELEKFANEFKVRRIKLGYTQTNVGEALAAVHGSEFSQTTICRFENLQLSFKNACALKAILSKWLEEAE , result: -0.226

// abundance fitness lookup, variant = RELEKFANEFKVRRIKLGYTQTNVGEALAAVHGSEFSQTTICRFENLQCSFKNACKLKAILSKWLEEAE , result: -0.208

// abundance fitness lookup, variant = RELAKFANEFKVRRIKLGYTQTNVGEALAAVHGSEFSQTTICRFENLQLSFKNACKLKAILSKWLEEAE , result: 0.043

// abundance fitness lookup, variant = RELEKFANEFKVRRMKLGYTQTNVGEALAAVHGSEFSQTTICRFENLQLSFKNACKLKAILSKWLEEAE , result: 0.014

// abundance fitness lookup, variant = RELEKFANEFKVRRIKLGYTQTNVGEALAAVHGSEFSQTTICRFENLQLSFKNACKLKAILSRWLEEAE , result: -0.152
